Assay: Hansen and Hildebrand solubility parameters
Task for the reader: assign each of the following compounds its reported Hansen Solubility Parameters δd.
Numbers only, in J/mL.

Compound: Cc1ccc(C)cc1
Unit Label: J/mL
Hansen Solubility Parameters δd: 17.6

Items follow; give Hansen Solubility Parameters δd for each.
1. CCCCOCC1CCCO1 (stereo not shown) [n-butyl THF, 2-(butoxymetyl)tetrahydrofuraan]
2. CC1=CC(=O)CC(C)(C)C1
3. CCCCOC(C)=O [n-butyl acetate]
4. O=C1CCCCC1

## Result
16.47
16.6
15.8
17.8

Go through the list and state Hansen Solubility Parameters δd for each entry.
1. CCOC(C)=O [Ethyl Acetate]
2. OCC1CCCO1 (stereo not shown) [THFA TetraHydroFurfurylAlcohol, TetraHydroFurfurylAlcohol]

## Result
[15.8, 17.8]
